Reported IC50 values are given for each entry in this list.
System: L929 cells
test.method.notes: L929 cell necroptosis assay (TNFa + zVAD, CellTiter-Glo)
Assay type: cell-based, murine
particulars: Mus musculus, L929, L929 cells, TNFa + zVAD; read-out: L929-CTG-recovery, L929, TNFa + zVAD (IC50)
Provide only the numeric value, understood in nM.

Worked examples, 4 compounds total:
CN1C(=O)[C@@H](NC(=O)c2cc(Oc3ccccc3F)ccn2)COc2ccc(C#CC(C)(C)C)cc21 [Compound I-102]
397
CN1C(=O)[C@@H](NC(=O)n2cc(Cc3ccc(F)cc3F)cn2)COc2ccc(C#CC(C)(C)CNC(=O)OC(C)(C)C)cc21 [Compound I-240]
944
CN1C(=O)[C@@H](NC(=O)c2n[nH]c(Cc3ccccc3)n2)COc2ccc(C#CC3(O)CCOCC3)cc21 [Compound I-55]
0.6
CN1C(=O)[C@@H](NC(=O)c2cc(Oc3ccccc3)ccn2)COc2cc(C#CC(C)(C)O)ccc21 [Compound I-64]
0.1

Form: compound = CN1CCN(C(C)(C)C#Cc2ccc3c(c2)N(C)C(=O)[C@@H](NC(=O)c2cc(Oc4ccccc4)ccn2)CO3)CC1 [Compound I-158] ; IC50 = 1640

Form: compound = CN1C(=O)[C@@H](NC(=O)c2cc(OC3CCCC3)ccn2)COc2ccc(C#CC(C)(C)O)cc21 [Compound I-156] ; IC50 = 10300

Form: compound = CN1C(=O)[C@@H](NC(=O)c2ncn(Cc3ccccc3)n2)COc2ccc(C#CC3(O)COC3)cc21 [Compound I-58] ; IC50 = 0.2

---

Tested on: L929 cells
test.method.notes: L929 cell necroptosis assay (TNFa + zVAD, CellTiter-Glo)
Format: cell-based, murine
particulars: Mus musculus, L929, L929 cells, TNFa + zVAD; read-out: L929-CTG-recovery, L929, TNFa + zVAD (IC50)
readout: IC50 (nM)
Provide only the numeric value, understood in nM.

Form: compound = CN1C(=O)[C@@H](NC(=O)n2cc(Cc3ccc(F)cc3F)cn2)COc2ccc(C#CC(C)(C)CO)cc21 ; IC50 = 218

Form: compound = CN1C(=O)[C@@H](NC(=O)c2ncn(Cc3ccccc3)n2)COc2ccc(C#CC3(O)CCCC3)cc21 ; IC50 = 0.3

Form: compound = CC(C)CCc1ccc2c(c1)N(C)C(=O)[C@@H](NC(=O)c1n[nH]c(Cc3ccccc3)n1)CO2 ; IC50 = 2.4

Form: compound = CN1C(=O)[C@@H](NC(=O)c2n[nH]c(Cc3ccccc3F)n2)COc2ccc(C#CC(C)(C)O)cc21 ; IC50 = 0.7

---

target.under.test: RIPK1 (Homo sapiens (Human), UniProt Q13546)
Sequence (Q13546 whole entry, species assumed): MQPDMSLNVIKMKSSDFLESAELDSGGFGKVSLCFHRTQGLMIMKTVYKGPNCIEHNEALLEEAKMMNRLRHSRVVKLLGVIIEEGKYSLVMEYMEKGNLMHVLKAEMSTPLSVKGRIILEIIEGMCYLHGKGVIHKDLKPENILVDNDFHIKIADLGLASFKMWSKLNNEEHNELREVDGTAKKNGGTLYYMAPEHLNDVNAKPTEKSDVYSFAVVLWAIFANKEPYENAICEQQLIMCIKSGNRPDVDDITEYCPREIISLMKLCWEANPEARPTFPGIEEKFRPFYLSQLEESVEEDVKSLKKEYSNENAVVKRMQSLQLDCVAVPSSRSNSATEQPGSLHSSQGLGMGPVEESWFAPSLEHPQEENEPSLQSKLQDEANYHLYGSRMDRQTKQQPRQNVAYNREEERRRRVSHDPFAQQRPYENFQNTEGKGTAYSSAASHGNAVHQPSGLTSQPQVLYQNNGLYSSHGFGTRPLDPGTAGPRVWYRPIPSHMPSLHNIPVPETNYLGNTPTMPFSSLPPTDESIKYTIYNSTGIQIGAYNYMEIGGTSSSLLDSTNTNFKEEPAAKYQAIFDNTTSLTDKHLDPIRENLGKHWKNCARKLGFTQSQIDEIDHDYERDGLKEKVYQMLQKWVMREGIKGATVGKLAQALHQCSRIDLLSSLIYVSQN
test.method.notes: RIPK1 ADP-Glo biochemical kinase assay
particulars: read-out: RIPK1 ADP-Glo Kinase (IC50)
Reported IC50 values are given for each entry in this list.
Provide only the numeric value, understood in nM.

Form: compound = CN1C(=O)[C@H](NC(=O)c2n[nH]c(Cc3ccccc3)n2)COc2ccc(C#CC(C)(C)O)cc21 ; IC50 = 1160

Form: compound = CN1C(=O)[C@@H](NC(=O)c2cc(Oc3ccccc3)ccn2)COc2cc(C#CC(C)(C)O)ccc21 ; IC50 = 19
